- System: Pseudomonas aeruginosa
- protocol: Antibiofilm activity against Pseudomonas aeruginosa PAO1 assessed as inhibition of biofilm formation at 100 uM relative to control
- Format: functional
- Parameters: scale not given: the % may be the effect or the level left
experimental-readout: Activity

# count of solved cases: 3
[
  {
    "compound": "O=c1c(O[C@@H]2O[C@H](CO)[C@@H](O)[C@H](O)[C@H]2O)c(-c2ccc(O)c(O)c2)oc2cc(O)cc(O)c12 [ISOQUERCETIN]",
    "experimental-readout": "Activity",
    "result": "18%"
  },
  {
    "compound": "O=Cc1ccc2c(c1)OC(c1ccc(O)c(O)c1)O2 (stereo unspecified)",
    "experimental-readout": "Activity",
    "result": "44.63%"
  },
  {
    "compound": "O=c1c(O[C@@H]2O[C@H](CO)[C@H](O)[C@H](O)[C@H]2O)c(-c2ccc(O)c(O)c2)oc2cc(O)cc(O)c12 [HYPEROSIDE]",
    "experimental-readout": "Activity",
    "result": "18%"
  }
]

Could you report Activity for every entry in the following list?
1. O=c1cc(-c2ccc(O)c(O)c2)oc2cc(O)c([C@@H]3O[C@H](CO)[C@@H](O)[C@H](O)[C@H]3O)c(O)c12 [ISOORIENTIN]
2. O=Cc1ccc(O)c(O)c1 [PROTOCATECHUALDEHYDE]
3. O=c1cc(-c2ccc(O)c(O)c2)oc2c([C@H]3C[C@@H](O)[C@H](O)[C@@H](CO)O3)c(O)cc(O)c12

## Output
1. 18%
2. 18%
3. 18%

Measured values drawn from ChEMBL document CHEMBL6153025 for this set.
